molecular target: pooled human IgG
Property: Enzyme Activity Endpoint Assay (purified): Fc; scope: individual proteins
Return type: number; implicit unit ng/µL.

Input line: Tell me the measured Enzyme Activity Endpoint Assay (purified): Fc of PRT-329 (protein) MTITSVWTKGVTPPTPEDFRENNEDVLHAPYVANQGWYDITKTFDGKDNLLCGAATAGNMLHWWFDQNKEEIERYLKKHPEKQKIIFNNQELFDVKAAIDTKDSQTNSKLFNYFRDKAFPGLSARQLGVFPDLVLDMFINGYYLNLGKTQSTDVNRPYQDKDKRGGIFDAVFTRGVQTTLLTARHDLKNKGLNEISDLIKQELTEGKALALSHTYANVRINHVINLWGADFDAEGNLIAIYVTDSDANASIGMKKYFVGRNANGKVAISAKKIEGDNIGAQVLGLFTLSLGQDIWQKLS , please.
Output line: 406

Others:
Input line: Tell me the measured Enzyme Activity Endpoint Assay (purified): Fc of PRT-152 (protein) MANQEIRYSEVTPYHVTSVWTKGVTPPANFTQGEDVFHAPYVANQGWYDITKTFNGKDDLLCGAATAGNMLHWWFDQNKTQIERYLKKHPEKQKINFNGEQMFDVKEAIDTKNHQLDSKLFEYFKEKAFPYLSTKHLGVFPDHVIDMFINGYRLSLTNHGPTPVKEGSKDPRGGIFDAVFTRGDQSKLLTSRHDFKEKNLKEISDLIKKELTEGKALGLSHTYANVRINHVINLWGADFDSNGNLKAIYVTDSDSNASIGMKKYFVGVNSAGKVAISAKEIKEDNIGAQVLGLFTLSTGKDSWEKTN , please.
Output line: 158
